B1: ZNF449 (parent)
chain: HKKKSPGEKPHRCPQCGKCFARKS

Variants of: B1
Assay: protein stability index of a GFP-peptide fusion (GPS, HEK-293T) (PSI 1-6); higher = more stable;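 further: lentivirally expressed fusions sorted by FACS into six bins by GFP to DsRed ratio, PSI derived from sequencing read proportions per bin multiplied by bin number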
Conditions: c terminus: a fixed tail appended
Tick YES if protein stability index is 4 or greater. Tick NO if protein stability index is less than 4.

mut=C16I group=YES
mut=F20Y group=NO
mut=H11Y group=NO
mut=H11E group=YES
mut=P14S group=NO
mut=K23D group=NO
mut=H1A group=NO
mut=P14A group=NO
mut=P14K group=NO
mut=K2F group=NO
mut=Q15W group=NO
mut=H1R group=NO
mut=G7S group=NO
mut=C19D group=NO
mut=C16Y group=YES
mut=R12L group=NO
mut=K3H group=YES
mut=K23L group=NO
mut=E8D group=NO
mut=K9N group=YES
